GPI ED50: recorded values
Biological target: µ-opioid receptor of the guinea pig ileum (GPI) (guinea pig)
Assay: cell-based or functional assay
Non-standard residues stand in square brackets, D forms with d. *: point of attachment. des‑NH2‑α‑pyrrole‑1‑yl = replacement of the α-amino group by a pyrrol-1-yl group; NH(1-Adamantyl) = C1C2CC3CC1CC(N*)(C2)C3; Dmt = Cc1cc(O)cc(C)c1C[C@H](N)C(=O)O; Tic = O=C(O)[C@@H]1Cc2ccccc2CN1; NHtBu = CC(C)(C)N*

binder	u	bound_type	GPI ED50
{N,N‑dimethyl}-[Dmt]-[Tic]-NHtBu [N,N(Me)2-Dmt-Tic-NH-tBu]	µM	>	10
{des‑NH2‑α‑pyrrole‑1‑yl}-[Dmt]-[Tic]-OH [[des-NH2-α-pyrrole-1-yl]-Dmt-Tic-OH]	µM	>	10
H-[Dmt]-[Tic]-Ala-NH2 [H-Dmt-Tic-Ala-NH2]	µM	=	4.74
H-[Dmt]-[Tic]-Ala-NHMe (SMILES CNC(=O)[C@H](C)NC(=O)[C@@H]1Cc2ccccc2CN1C(=O)[C@@H](N)Cc1c(C)cc(O)cc1C) [H-Dmt-Tic-Ala-NHMe]	µM	=	0.29
H-[Dmt]-[Tic]-{NH(1-Adamantyl)} (SMILES Cc1cc(O)cc(C)c1C[C@H](N)C(=O)N1Cc2ccccc2C[C@H]1C(=O)NC12CC3CC(CC(C3)C1)C2) [H-Dmt-Tic-NH-1-adamantane]	µM	=	0.036
